tested on: Escherichia coli; experiment: Antimicrobial activity against Escherichia coli BL21 after 24 hrs; format: functional; conditions: BL21, 24 h
Give log10 of MIC for every item shown.
Kindly note that the scale is log10 and the underlying MIC is in µM.

Qu. Name the reported log10 of MIC value associated with the compound C=C1C(=O)OCC1O (racemic) [(+/-)-TULIPALINE B]
Ans. 1.10

Qu. Name the reported log10 of MIC value associated with the compound C=C(C(=O)O[C@@H]1O[C@H](CO)[C@@H](O)[C@H](O)[C@H]1O)[C@@H](O)CO [1-TULIPOSIDE B]
Ans. 0.80

Qu. Name the reported log10 of MIC value associated with the compound `C=C1C(=O)O[C@@H]2/C=C(\CO)CC/C=C(\C)C[C@H](OC(=O)C(=C)[C@H](O)CO)[C@@H]12`
Ans. 1.40

Qu. Name the reported log10 of MIC value associated with the compound C=C(C(=O)O)C(O)CO (stereo not given)
Ans. 0.19

Qu. Name the reported log10 of MIC value associated with the compound `C[C@@H]1O[C@@H]1P(=O)(O)O`
Ans. 1.70

====

experiment: Electrophilicity, glutathione reactivity of the compound assessed as half life; assay type: physicochemical; conditions: glutathione (reaction with glutathione)
readout-type: half-life

Qu. Name the reported half-life value associated with the compound `C[C@@H]1O[C@@H]1P(=O)(O)O`
Ans. > 2.5 days

Qu. Name the reported half-life value associated with the compound `C=C(CO)C(=O)O`
Ans. > 2.5 days

Qu. Name the reported half-life value associated with the compound C=C(C(=O)O)C(O)CO (stereo not drawn)
Ans. < 0.292 days

====

Give inhibition for every item shown.
tested on: Escherichia coli BL21; assay: Inhibition of Escherichia coli MurA; set-up: concentration or dose not given beside the values; settings: concentration not given here
Quick reminder: number only, in %, skip the unit.

Qu. Name the reported inhibition value associated with the molecule C=C1CC(CO)OC1=O (centres undefined)
Ans. 17

Qu. Name the reported inhibition value associated with the molecule C=C(C(=O)O[C@@H]1O[C@H](CO)[C@@H](O)[C@H](O)[C@H]1O)[C@@H](O)CO [1-TULIPOSIDE B]
Ans. 84

Qu. Name the reported inhibition value associated with the molecule `C[C@@H]1O[C@@H]1P(=O)(O)O`
Ans. 99

Qu. Name the reported inhibition value associated with the molecule C=C(CBr)C(=O)OC [METHYL BROMOMETHYL ACRYLATE]
Ans. 55

Qu. Name the reported inhibition value associated with the molecule `C=C1C(=O)O[C@@H]2/C=C(\CO)CC/C=C(\C)C[C@H](OC(=O)C(=C)[C@H](O)CO)[C@@H]12`
Ans. 97

Qu. Name the reported inhibition value associated with the molecule C=C(C(=O)O)C(O)CO (centres undefined)
Ans. 87

Qu. Name the reported inhibition value associated with the molecule C=C(C(=O)OC)C(OC(C)=O)C(O)CO (centres undefined)
Ans. 79

Qu. Name the reported inhibition value associated with the molecule C=C(C(=O)OC)C(O)C(O)CO (centres undefined)
Ans. 77

Qu. Name the reported inhibition value associated with the molecule C=C1C(=O)OCC1O (racemic) [(+/-)-TULIPALINE B]
Ans. 97

Qu. Name the reported inhibition value associated with the molecule C=C1C(=O)OC(CBr)C1O (centres undefined)
Ans. 85

Qu. Name the reported inhibition value associated with the molecule C=C1C(=O)OC(CO)C1O (centres undefined)
Ans. 74

Qu. Name the reported inhibition value associated with the molecule `C=C(CP(=O)(OCC)OCC)C(=O)OC`
Ans. 20

Qu. Name the reported inhibition value associated with the molecule `C=C(CP(=O)(O)O)C(=O)O`
Ans. 13

Qu. Name the reported inhibition value associated with the molecule `C=C(CCO)C(=O)O[C@@H]1O[C@H](CO)[C@@H](O)[C@H](O)[C@H]1O`
Ans. 11

From: ChEMBL document CHEMBL1255527
